System: CCRF-CEM
measurementNotes: In vitro cytotoxicity against human leukemia CCRF-CEM cell line
Type: functional, cell-based
outcomeMeasure: IC50 (nM)
Field format: number, assumed nM, no unit text.

Input `COc1ccc(C[C@H]2NC(=O)/C=C/C[C@@H]([C@H](C)[C@@H](O)[C@@H](Cl)c3ccccc3)OC(=O)[C@H](CC(C)C)NC(=O)C(C)(C)CNC2=O)cc1Cl` , output reported IC50. 0.016

Input `CCCC1(CCC)CNC(=O)[C@@H](Cc2ccc(OC)c(Cl)c2)NC(=O)/C=C/C[C@@H]([C@H](C)[C@@H](O)[C@@H](Cl)c2ccccc2)OC(=O)[C@H](CC(C)C)OC1=O` , output reported IC50. 8.7

Input `COc1ccc(C[C@H]2NC(=O)/C=C/C[C@@H]([C@H](C)[C@@H](O)[C@@H](Cl)c3ccccc3)OC(=O)[C@H](CC(C)C)OC(=O)C3(CCCCC3)CNC2=O)cc1Cl` , output reported IC50. 110

Input `CCC1(CC)CNC(=O)[C@@H](Cc2ccc(OC)c(Cl)c2)NC(=O)/C=C/C[C@@H]([C@H](C)[C@H]2O[C@@H]2c2ccccc2)OC(=O)[C@H](CC(C)C)OC1=O` , output reported IC50. 1.1

Input `COc1ccc(C[C@H]2NC(=O)/C=C/C[C@@H]([C@H](C)[C@@H](O)[C@@H](Cl)c3ccccc3)OC(=O)[C@H](CC(C)C)OC(=O)C(C)(C)CNC2=O)cc1Cl` , output reported IC50. 0.05

Input `COc1ccc(C[C@H]2NC(=O)/C=C/C[C@@H]([C@H](C)[C@H]3O[C@@H]3c3ccccc3)OC(=O)[C@H](CC(C)C)OC(=O)C3(CCCC3)CNC2=O)cc1Cl` , output reported IC50. 0.3

Input `CCCC1(CCC)CNC(=O)[C@@H](Cc2ccc(OC)c(Cl)c2)NC(=O)/C=C/C[C@@H]([C@H](C)[C@H]2O[C@@H]2c2ccccc2)OC(=O)[C@H](CC(C)C)OC1=O` , output reported IC50. 8.5

Input `COc1ccc(C[C@H]2NC(=O)/C=C/C[C@@H]([C@H](C)[C@@H](O)[C@@H](Cl)c3ccccc3)OC(=O)[C@H](CC(C)C)OC(=O)C3(CC3)CNC2=O)cc1Cl` , output reported IC50. 0.014

Input `COc1ccc(C[C@H]2NC(=O)/C=C/C[C@@H]([C@H](C)[C@@H](O)[C@@H](Cl)c3ccccc3)OC(=O)[C@H](CC(C)C)NC(=O)C3(CC3)CNC2=O)cc1Cl` , output reported IC50. 0.01

Input `CCC1(CC)CNC(=O)[C@@H](Cc2ccc(OC)c(Cl)c2)NC(=O)/C=C/C[C@@H]([C@H](C)[C@@H](O)[C@@H](Cl)c2ccccc2)OC(=O)[C@H](CC(C)C)OC1=O` , output reported IC50. 1.6

Input `COc1ccc(C[C@H]2NC(=O)/C=C/C[C@@H]([C@H](C)[C@H]3O[C@@H]3c3ccccc3)OC(=O)[C@H](CC(C)C)OC(=O)C3(CCCCC3)CNC2=O)cc1Cl` , output reported IC50. 63
